Values were extracted from the supplement of paper PMC10567573.

Readings of protein stability index for the listed variants
B1: TFE3 (parent)
chain: FHLGLEDILMEEEEGVVGGLSGGA

# Variants of: B1
# assay_procedure: protein stability index of a GFP-peptide fusion (GPS, HEK-293T) (PSI 1-6); higher = more stable;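 also: lentivirally expressed fusions sorted by FACS into six bins by GFP to DsRed ratio, PSI derived from sequencing read proportions per bin multiplied by bin number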
# recorded_conditions: c terminus: a fixed tail appended
measured_quantity: protein stability index

> print(dat)
    variant  test.value
 1      F1P        4.88
 2     G23T        3.56
 3      F1L        4.36
 4     M10W        3.57
 5      L5A        4.62
 6      G4L        2.46
 7     G19D        4.69
 8     V16Q        4.29
 9      L5E        4.96
10     G19I        2.87
11     G22E        4.01
12     E13D         3.3
13     E12D        3.77
14     G15V        3.64
15     V17Y        3.03
16      E6F        2.33
17      D7V        2.89
18      G4S        3.94
19     E14G        2.94
20     E11C         2.6
21      H2P        4.26
22     E11L         2.2
23     E13K        3.41
24      G4Q        3.54
25      D7I        2.25
26     V17L        3.61
27     G22M        3.59
28     M10G        4.02
29     L20F        4.09
30     S21H        3.44
31      L5K        3.76
32     G23R        3.29
33     G15N        3.84
34     S21Q        4.07
35     G19Q        4.09
36     E13N        3.55
37     A24F        2.39
38     G15I         2.9
39      L3I        4.07
40      E6P        3.02
41      D7G        3.54
42     E12S        3.29
43     G15F        2.42
44     G23S        3.52
45      H2C        3.96
46     A24D        4.17
47     G18W        3.06
48     G19E        4.32
49      E6H        2.86
50      D7P         3.5
51      F1G        4.95
52     V17D        4.44
53     V16M        3.58
54     E14L        2.67
55     V16F        2.83
56     L20W        3.02
57      L3M        3.92
58      E6I        1.88
59      L5Q        4.46
60      L5V        4.53
61      E6V        2.34
62      L5P        3.59
63     E11M        1.82
64      E6A        2.67
65     G18N        3.77
66      I8N        4.25
67      G4T        3.08
68     A24K        3.98
69     E13C        2.16
70      H2S        4.27
71     V16A        3.87
72     A24T        3.52
73     E11T        2.97
74     A24E         3.9
75     L20V        4.69
76     E14Y        2.39
77      L5N        3.85
78      F1H        5.11
79     M10L        3.44
80     V17T        3.95
81     G22R        3.39
82     E14K        3.34
83     V16I        4.12
84      I8L        3.78
85      L5W        4.21
86     V17E        3.64
87     G18C        3.76
88     G15A         4.1
89     V16N        3.68
90     G18E         4.1
91     V17F        2.88
